Each recorded value in this set is attributed to patent US20230192890A1.

target: T1, Ala mutant SEQ ID NO: 27 (human); test: ELISA, peptide on plate (10 ug/mL)
T1 sequence (peptide): AENMDDQWMQDEMEIGY
Quick list: absorbance 490 nm/630 nm per entry.
API: value field is a number in OD; no unit string.

Here is how some binders turned out for absorbance 490 nm/630 nm.
A11 (antibody, IgG1, V domains shown) VH: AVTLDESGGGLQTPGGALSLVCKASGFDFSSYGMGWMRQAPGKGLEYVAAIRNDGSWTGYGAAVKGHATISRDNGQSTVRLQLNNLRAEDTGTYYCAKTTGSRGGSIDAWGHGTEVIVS VL: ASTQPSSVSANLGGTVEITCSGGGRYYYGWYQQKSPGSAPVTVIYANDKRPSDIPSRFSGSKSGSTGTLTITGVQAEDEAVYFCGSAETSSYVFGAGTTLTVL
1.95
E9 (antibody, IgG1, V domains shown) VH: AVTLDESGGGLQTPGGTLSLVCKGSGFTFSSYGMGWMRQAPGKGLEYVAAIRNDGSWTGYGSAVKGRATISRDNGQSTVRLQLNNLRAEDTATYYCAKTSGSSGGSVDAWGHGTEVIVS VL: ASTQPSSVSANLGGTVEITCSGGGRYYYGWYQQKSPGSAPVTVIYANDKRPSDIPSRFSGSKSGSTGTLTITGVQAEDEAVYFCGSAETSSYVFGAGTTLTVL
1.89
H7 (antibody, IgG1, V domains shown) VH: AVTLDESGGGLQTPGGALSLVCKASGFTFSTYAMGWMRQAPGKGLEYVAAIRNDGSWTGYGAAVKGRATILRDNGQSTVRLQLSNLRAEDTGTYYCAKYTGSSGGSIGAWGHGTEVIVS VL: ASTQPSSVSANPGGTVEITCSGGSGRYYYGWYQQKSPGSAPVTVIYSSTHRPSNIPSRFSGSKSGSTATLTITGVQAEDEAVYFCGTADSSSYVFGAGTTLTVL
1.9
G8 (antibody, IgG1, V domains shown) VH: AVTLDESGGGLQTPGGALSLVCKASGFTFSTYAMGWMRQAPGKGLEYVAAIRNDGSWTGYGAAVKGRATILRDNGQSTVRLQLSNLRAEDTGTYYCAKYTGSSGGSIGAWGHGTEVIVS VL: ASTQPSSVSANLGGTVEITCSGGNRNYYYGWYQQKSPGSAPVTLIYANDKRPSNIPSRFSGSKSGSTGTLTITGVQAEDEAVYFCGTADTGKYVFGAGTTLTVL
1.96

Reported absorbance 490 nm/630 nm, binder G9 (antibody, IgG1, V domains shown) VH: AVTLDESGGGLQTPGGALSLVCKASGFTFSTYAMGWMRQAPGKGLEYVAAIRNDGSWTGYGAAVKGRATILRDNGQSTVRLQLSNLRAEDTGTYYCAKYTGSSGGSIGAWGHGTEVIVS VL: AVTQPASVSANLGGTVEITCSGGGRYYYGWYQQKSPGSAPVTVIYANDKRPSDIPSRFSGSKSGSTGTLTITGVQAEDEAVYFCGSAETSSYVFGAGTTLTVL : ____ 1.93

Now give it for G6 (antibody, IgG1, V domains shown) VH: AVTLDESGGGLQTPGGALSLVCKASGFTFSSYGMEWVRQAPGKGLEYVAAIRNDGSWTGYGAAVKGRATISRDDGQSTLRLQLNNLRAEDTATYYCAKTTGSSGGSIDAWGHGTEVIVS VL: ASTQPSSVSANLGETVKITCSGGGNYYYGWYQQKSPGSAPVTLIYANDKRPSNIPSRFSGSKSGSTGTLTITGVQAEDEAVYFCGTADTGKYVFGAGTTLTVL too. 1.91
